System: MCF-7 breast cancer cells
measurement-description: Cell viability by MTT assay
Assay type: cell-based
experimental-parameters: MCF-7, 24 h treatment, read-out: IC50, cell viability (cytotoxicity)

{"columns": ["substance-smiles", "IC50 [nM]"],
 "data": [
  ["O=Cc1ccnc(-c2cc(C=O)ccn2)c1.S=C([S][Au+2])N(Cc1ccccc1)Cc1ccccc1", 875]
]}

----------
Tested on: MCF-7 breast cancer cells
measurement-description: Cell viability by MTT assay
Format: cell-based
experimental-parameters: Homo sapiens, MCF7, MCF-7, 24 h treatment, read-out: IC50, cell viability (cytotoxicity)
Procedure: Materials and methods: All organic ligands were purchased from Sigma-Aldrich and gold salts from Strom Chemicals USA. Breast cancer cell lines MCF-7 were obtained from American Type Culture Collection, ATCC (Virginia, USA). […] Cell viability was determined by 3-(4,5-dimethylthiazol-2-yl)-2,5-diphenyltetrazolium bromide (MTT) assay. […] The absorbance was recorded at 570 nm against reagent blank. […]

{"columns": ["compound", "IC50 / µM"],
 "data": [
  ["CNC(=O)c1cc(Oc2ccc(NC(=O)Nc3ccc(Cl)c(C(F)(F)F)c3)cc2)ccn1 [Sorafenib, reference compound]", 4.45]
]}
